- study_target: Bile acid receptor (Homo sapiens)
- experiment_summary: qHTS assay to identify small molecule agonists of the farnesoid-X-receptor (FXR) signaling pathway (AID 743220)
- measurement_context: HEK293T FXR-UAS-bla, beta-lactamase FRET ratio, 16 h; series mostly up to 62.6 µM
Records with an inconclusive call do not appear. Active and inactive are the calls of the source. Calls come from the whole dose curve; as a rule, active = well fitted activation curve with a large enough effect in the signal ratio in the repeat runs (not every such curve was filed as active); inconclusive = weak or mixed curves, or effect the other way; inactive = flat fitted curve, though single readings scatter; the % refers to the signal ratio.
value_type: activation

Consider the worked cases shown below.
compound: Cc1nc(Nc2ncc(C(=O)Nc3c(C)cccc3Cl)s2)cc(N2CCN(CCO)CC2)n1
study_target: Bile acid receptor (Homo sapiens)
experimental_result: inactive
//
compound: COCC(=O)O[C@]1(CCN(C)CCCc2nc3ccccc3[nH]2)CCc2cc(F)ccc2[C@@H]1C(C)C
study_target: Bile acid receptor (Homo sapiens)
experimental_result: inactive
//
compound: C=CC(C)(CCC=C(C)C)OC(=O)/C=C/c1ccccc1 (configuration not stated)
study_target: Bile acid receptor (Homo sapiens)
experimental_result: inactive
//
compound: CC1(C)C(=O)N(Br)C(=O)N1Br
study_target: Bile acid receptor (Homo sapiens)
experimental_result: inactive
//
compound: CCN(CC)CCNc1ccc(CO)c2sc3ccccc3c(=O)c12
study_target: Bile acid receptor (Homo sapiens)
experimental_result: inactive

In: Quick check: activation of O=C(O)Cc1ccc(OCCNC[C@H](O)c2ccccc2)cc1 ?
Out: inactive

In: Queued: CCCCCCCCCC(=O)N(C)C
Out: inactive

In: Queued: COc1ccc2sc(C(=O)Nc3nnn[nH]3)c(OC(C)C)c2c1
Out: inactive

In: Queued: CCCCCCCC/C=C\CCCCCCCC(=O)NCc1ccc(O)c(OC)c1
Out: inactive

In: Queued: CCCCN(CCCC)CCC(O)c1cc2c(Cl)cc(Cl)cc2c2cc(C(F)(F)F)ccc12 (configuration not stated)
Out: inactive

In: Queued: CN(C)CCCN1c2ccccc2Sc2ccc(C(F)(F)F)cc21
Out: inactive

In: Queued: CC(C)N=C(N)/N=C(\N)Nc1ccc(Cl)cc1
Out: inactive
